Just for reference, PubChem BioAssay (Tox21) is where these values come from.

biological target: Acetylcholinesterase (Homo sapiens) (UniProt P22303); experiment: Acetylcholinesterase (AChE) small molecule antagonists: enzyme-based qHTS assay (AID 1347397); conditions: AChE enzyme activity inhibition; series mostly up to 115 µM; note: nearly all actives have a fitted effect of over 55% in size
Sequence (P22303 whole entry, looked up): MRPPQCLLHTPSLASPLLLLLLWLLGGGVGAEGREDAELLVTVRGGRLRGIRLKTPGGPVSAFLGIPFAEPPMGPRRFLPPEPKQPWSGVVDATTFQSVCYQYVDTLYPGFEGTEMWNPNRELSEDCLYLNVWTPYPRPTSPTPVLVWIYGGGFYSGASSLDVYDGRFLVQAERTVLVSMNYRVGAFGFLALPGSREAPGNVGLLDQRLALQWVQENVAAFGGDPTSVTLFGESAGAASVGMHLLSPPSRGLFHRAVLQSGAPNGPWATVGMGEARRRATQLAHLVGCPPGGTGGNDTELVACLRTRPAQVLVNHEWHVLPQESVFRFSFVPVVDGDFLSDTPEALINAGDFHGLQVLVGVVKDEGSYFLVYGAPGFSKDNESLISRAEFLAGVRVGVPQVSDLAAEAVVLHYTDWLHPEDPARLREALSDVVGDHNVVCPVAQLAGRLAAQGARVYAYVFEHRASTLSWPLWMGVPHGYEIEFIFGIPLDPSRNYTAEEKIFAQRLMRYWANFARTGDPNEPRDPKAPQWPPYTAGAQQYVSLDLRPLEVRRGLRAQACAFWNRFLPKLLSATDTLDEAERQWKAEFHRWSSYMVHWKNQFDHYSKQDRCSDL
Activity calls are given as the source filed them. Calls come from the whole dose curve.
Reported Endpoint: outcome

Example entries and their recorded answers appear below.
[
  {
    "Compound": "c1ccc(CN(Cc2ccccc2)Cc2ccccc2)cc1",
    "Target Or System": "Acetylcholinesterase (Homo sapiens) (UniProt P22303)",
    "outcome": "inactive"
  },
  {
    "Compound": "[O-][n+]1cccc(CO)c1",
    "Target Or System": "Acetylcholinesterase (Homo sapiens) (UniProt P22303)",
    "outcome": "inactive"
  },
  {
    "Compound": "CN1[C@@H]2CC[C@H]1CC(NC(=O)n1c(=O)[nH]c3ccccc31)C2 (some centres undefined)",
    "Target Or System": "Acetylcholinesterase (Homo sapiens) (UniProt P22303)",
    "outcome": "inactive"
  },
  {
    "Compound": "C1CCC2(CCCCO2)OC1",
    "Target Or System": "Acetylcholinesterase (Homo sapiens) (UniProt P22303)",
    "outcome": "inactive"
  },
  {
    "Compound": "O=S(=O)(O)c1ccc(N=Nc2c(O)ccc3ccccc23)cc1",
    "Target Or System": "Acetylcholinesterase (Homo sapiens) (UniProt P22303)",
    "outcome": "inactive"
  },
  {
    "Compound": "O=C1CCC(=O)N1Cl",
    "Target Or System": "Acetylcholinesterase (Homo sapiens) (UniProt P22303)",
    "outcome": "inactive"
  }
]

Incoming: Answer with reported outcome of CCOC(=O)C(C)(C)C
Outgoing: inactive

Incoming: Answer with reported outcome of CCCCCCCCCCCC(=O)[O][Sn]([CH2]CCC)([CH2]CCC)[O]C(=O)CCCCCCCCCCC
Outgoing: inactive

Incoming: Answer with reported outcome of CC(C)=CCCC(C)C=O (centres undefined)
Outgoing: inactive

Incoming: Answer with reported outcome of Cc1onc(-c2c(Cl)cccc2Cl)c1C(=O)Cl
Outgoing: inactive

Incoming: Answer with reported outcome of CC(=O)OCC(C)OC(C)=O (centres undefined)
Outgoing: inactive

Incoming: Answer with reported outcome of C=C1CC[C@H]2C[C@@H]1C2(C)C
Outgoing: inactive

Incoming: Answer with reported outcome of NS(=O)(=O)Cc1noc2ccccc12
Outgoing: inactive

Incoming: Answer with reported outcome of O=C1OC(=O)C2CCCCC12 (centres undefined)
Outgoing: inactive

* * *

target: Acetylcholinesterase (Homo sapiens) (UniProt P22303); assay: Acetylcholinesterase (AChE) small molecule antagonists: enzyme-based qHTS assay (AID 1347397); conditions: AChE enzyme activity inhibition; series mostly up to 115 µM; note: nearly all actives have a fitted effect of over 55% in size
Active and inactive are the calls of the source. Calls follow the shape of the full dose curve.
Parameter call: string, one of active, inactive

[
  {
    "Molecule": "Nc1cccc2c(=O)[nH][nH]c(=O)c12",
    "Target Or System": "Acetylcholinesterase (Homo sapiens) (UniProt P22303)",
    "Cat": "inactive"
  },
  {
    "Molecule": "CC(CN)CC(C)(C)CCN (configuration not stated)",
    "Target Or System": "Acetylcholinesterase (Homo sapiens) (UniProt P22303)",
    "Cat": "inactive"
  },
  {
    "Molecule": "OCCN1CCN(CCCN2c3ccccc3Sc3ccc(C(F)(F)F)cc32)CC1",
    "Target Or System": "Acetylcholinesterase (Homo sapiens) (UniProt P22303)",
    "Cat": "inactive"
  },
  {
    "Molecule": "CC(=O)OCC(=O)[C@@]1(O)[C@H](OC(C)=O)C[C@H]2[C@@H]3CCC4=CC(=O)C=C[C@]4(C)[C@@]3(F)[C@@H](O)C[C@@]21C",
    "Target Or System": "Acetylcholinesterase (Homo sapiens) (UniProt P22303)",
    "Cat": "inactive"
  },
  {
    "Molecule": "CCCSS/C(CCO)=C(\\C)N(C=O)Cc1cnc(C)nc1N",
    "Target Or System": "Acetylcholinesterase (Homo sapiens) (UniProt P22303)",
    "Cat": "inactive"
  }
]

Incoming: What did the test return for COC(C)=O ?
Outgoing: inactive

Incoming: What did the test return for CCC(=O)C(=O)CC ?
Outgoing: inactive

Incoming: What did the test return for COc1cc(OC)c2ccc(=O)oc2c1 ?
Outgoing: inactive

Incoming: What did the test return for CCC(Cc1ccccc1)(C(=O)c1ccc(N2CCOCC2)cc1)N(C)C (configuration not stated) ?
Outgoing: inactive

Incoming: What did the test return for Cc1ccc(NC(=O)c2ccc(CN3CCN(C)CC3)cc2)cc1Nc1nccc(-c2cccnc2)n1 ?
Outgoing: inactive

Incoming: What did the test return for O=C1OC(=O)c2cc([N+](=O)[O-])ccc21 ?
Outgoing: inactive

Incoming: What did the test return for N#CCc1ccccc1[N+](=O)[O-] ?
Outgoing: inactive

Incoming: What did the test return for CCN1CCN(c2cc3c(cc2F)c(=O)c(C(=O)O)cn3C2CC2)CC1 ?
Outgoing: inactive

Incoming: What did the test return for COC(=O)/C=C(/C)N ?
Outgoing: inactive

Incoming: What did the test return for O=C(CCCN1CCN(c2ccccn2)CC1)c1ccc(F)cc1 ?
Outgoing: inactive

Incoming: What did the test return for CC1CCC(C(C)(C)O)CC1 (configuration not stated) ?
Outgoing: inactive

Incoming: What did the test return for Nc1ccnc(=O)[nH]1 ?
Outgoing: inactive

Incoming: What did the test return for COC(=O)C1=C(C)NC(COC(N)=O)=C(C(=O)OC(C)C)C1c1cccc(Cl)c1Cl (configuration not stated) ?
Outgoing: inactive

Incoming: What did the test return for CCC(CO)(CO)[N+](=O)[O-] ?
Outgoing: inactive
